# system under test: human TREK-1 (Homo sapiens)
# Construct: expressed in transfected cells
# Sequence (O95069 whole entry): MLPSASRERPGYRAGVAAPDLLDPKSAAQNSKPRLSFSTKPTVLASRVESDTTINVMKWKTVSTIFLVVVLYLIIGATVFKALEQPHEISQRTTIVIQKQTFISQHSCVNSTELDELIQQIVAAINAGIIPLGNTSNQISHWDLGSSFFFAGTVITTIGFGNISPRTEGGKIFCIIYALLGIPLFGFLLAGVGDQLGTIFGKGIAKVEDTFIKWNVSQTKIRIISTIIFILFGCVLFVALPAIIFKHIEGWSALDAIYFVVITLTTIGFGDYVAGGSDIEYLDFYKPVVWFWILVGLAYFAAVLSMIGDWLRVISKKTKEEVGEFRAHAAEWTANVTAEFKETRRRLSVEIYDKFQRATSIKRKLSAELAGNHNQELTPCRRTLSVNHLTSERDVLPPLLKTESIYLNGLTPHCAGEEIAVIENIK
# assay info: TREK-1 Thallium (Tl+) flux assay, Method 1
# Type: cell-based
# measurement conditions: TREK-1 Thallium (Tl+) flux assay; values without footnote *12 are Method 1
IC50 values for the molecules below.
Reply with just the number (in nM).

Study these solved cases before continuing.
Fill in the recorded IC50 for this molecule, with human TREK-1 (Homo sapiens) as test system: `Cc1cc(C#Cc2cccc(F)c2)cnc1NC(=O)c1c(Cl)cnn1C1CCN(C(=O)C2CC2)CC1` 230

What about this molecule? `O=C(Nc1ncc(C#Cc2ccccc2)cc1F)c1c(Cl)cnn1C1CCOCC1` 140

Now consider `CC(=O)N1CCC(n2ncc(Br)c2C(=O)Nc2ncc(C#Cc3ccccc3)cc2C)CC1` . 40

Here is the next item to consider.
What is its IC50 for human TREK-1 (Homo sapiens)? Entry: `CCNC(=O)N1CCC(n2ncc(Cl)c2C(=O)Nc2ncc(C#Cc3ccccc3)cc2C)CC1` 180
